Taken from patent US20200392228A1.

Target: T1, human MAdCAM expressed on cells (human, UniProt Q13477 19-382)
T1 construct: whole, on cells; also called MADCAM1
T1 sequence (looked up): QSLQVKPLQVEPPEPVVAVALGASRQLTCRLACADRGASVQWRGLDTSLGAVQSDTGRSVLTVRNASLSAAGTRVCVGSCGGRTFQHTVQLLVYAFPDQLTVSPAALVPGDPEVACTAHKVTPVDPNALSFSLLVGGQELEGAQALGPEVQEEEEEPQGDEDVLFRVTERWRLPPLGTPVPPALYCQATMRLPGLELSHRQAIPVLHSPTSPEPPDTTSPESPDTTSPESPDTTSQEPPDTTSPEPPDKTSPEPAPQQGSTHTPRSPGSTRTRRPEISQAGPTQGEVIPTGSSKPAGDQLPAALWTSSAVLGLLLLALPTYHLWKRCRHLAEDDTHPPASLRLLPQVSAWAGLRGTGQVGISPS
Test: cell binding
Reported metric: binding result

INSERT INTO measurements (binder, result) VALUES
  ('MAdCAM antibody Clone ID 39 of Table 6 (scFv) (scFv) scFv: QVQLVQSGAEVKKPGASVKVSCKASGYTFTSYYMHWVRQAPGQGLEWMGWMNPNSGNTGYAQKFQGRVTMTRDTSTSTVYMELSSLRSEDTAVYYCARDLGYYDSSGYFGAFDIWGQGTTVTVSSGGGGSGGGGSGGGGSGGGGSDIQMTQSPSSLSASVGDRVTITCQSSEDISSSLNWYQQKPGKAPKLLIYAASSLQIGVPSRFSGSGSGTDFTLTISSLQPEDFATYYCQQTYSTPYTFGQGTKVEIK', 'binds'),
  ('MAdCAM antibody Clone ID 51 of Table 6 (scFv) (scFv) scFv: EVQLLESGGGLVQPGGSLRLSCAASGFTFNNYGMNWVRQAPGKGLEWVSRINSDGSSTSYADSVKGRFTISRDNSKNTLYLQMNSLRAEDTAVYYCARGAYYYYYMDVWGQGTLVTVSSGGGGSGGGGSGGGGSGGGGSEIVMTQSPATLSVSPGERATLSCRASQSVSGSYLAWYQQKPGQAPRLLIYATSSRASGIPARFSGSGSGTEFTLTISSLQSEDFAVYYCQQYYSGLTFGQGTKVEIK', 'binds');
